Source: paper PMC5892938

Entries and their binding signal values follow.
- ASSAYED_TARGET: GST-SBP-SLBP (stem-loop binding protein) (Homo sapiens, UniProt Q14493 1-270)
- ASSAY_INFO: targeted RNA Bind-n-Seq; RBNS binding buffer: 25 mM Tris pH 7.5, 150 mM KCl, 3 mM MgCl2, 0.1% Tween, 0.5 mg/mL BSA, 1 mM DTT; 27 nM protein, 750 pM RNA pool; temperature not stated; high values mean tight binding
- CONDITION_PARAMETERS: protein: recombinant; tags: N-terminal GST and SBP (pGEX6P1-SBP); structured_RNA
Whole data set: some 11,000 sequences, median “log2 fold change” near 0.00022, cut for the highest 2% near 0.34. The list shows a part of the results.
Note: unit log2 fold change is implicit; provide only the numeric part.

# SEQUENCE_DATA, ENDPOINT_UNIT, binding signal
data = [
    ("GGUCACGUCUCAAUCAACUCCUUAGAGGGGGGGAAAACCCCUUUGCCCUCAUACUCAACAGCUCGCAGUCAAG", "log2 fold change", 0.464),
    ("GGUCACGUCUCAAUCAACUCACUAGAGGGGGGGAAAACCCCUUUGCCCUCAUACUCAACAGCUCGCAGUCAAG", "log2 fold change", 0.37),
    ("GGUCACGUCUCAAUCAACUCAAUAGAGGGGGGGAAAACCCCUUUACCCUCACCAUCAACAGCUCGCAGUCAAG", "log2 fold change", 0.306),
    ("GGUCACGUCUCAAUCAACUCCCUAGAGGGGGGGAAAACCCCUUUACCCUCACAAUCAACAGCUCGCAGUCAAG", "log2 fold change", 0.389),
    ("GGUCACGUCUCAAUCAACUCCACAGAGGGGGGGAAAACCCCUUUACCCUCCAUCUCAACAGCUCGCAGUCAAG", "log2 fold change", 0.416),
    ("GGUCACGUCUCAAUCAACUCAACAGAGGGGGGGAAAACCCCUUUACCCUCACCAUCAACAGCUCGCAGUCAAG", "log2 fold change", 0.341),
    ("GGUCACGUCUCAAUCAACUCUCUAGAGGGGGGGAAAACCCCUUUACCCUCACCAUCAACAGCUCGCAGUCAAG", "log2 fold change", 0.354),
]

Now take the following sequence into account.
Query: Answer briefly: binding signal recorded on GST-SBP-SLBP (stem-loop binding protein) (Homo sapiens, UniProt Q14493 1-270) for GGUCACGUCUCAAUCAACUCCCUAGAGGGGGGGAAAACCCCUUUACCCUCAAUGUCAACAGCUCGCAGUCAAG
Result: 0.558

----------
- ASSAYED_TARGET: GST-SBP-SLBP (stem-loop binding protein) (Homo sapiens, UniProt Q14493 1-270)
- ASSAY_INFO: targeted RNA Bind-n-Seq; RBNS binding buffer: 25 mM Tris pH 7.5, 150 mM KCl, 3 mM MgCl2, 0.1% Tween, 0.5 mg/mL BSA, 1 mM DTT; 27 nM protein, 750 pM RNA pool; temperature not stated; high values mean tight binding
- CONDITION_PARAMETERS: protein: recombinant; tags: N-terminal GST and SBP (pGEX6P1-SBP); structured_RNA
Whole data set: some 11,000 sequences, median “log2 fold change” near 0.00022, cut for the highest 2% near 0.34. The list shows a part of the results.
Entries and their binding signal values follow.
Quick note: unit goes after the number.

Worked cases, answers included:
# SEQUENCE_DATA, binding signal
measured = [
    ("GGUCACGUCUCAAUCAACUCCUACGAGGGGGGGAAAACCCCUUUACCCUCAACCUCAACAGCUCGCAGUCAAG", "0.619 log2 fold change"),
    ("GGUCACGUCUCAAUCAACUCUUCAGAGGGGGGGAAAACCCCUUUACCCUCCUAAUCAACAGCUCGCAGUCAAG", "0.368 log2 fold change"),
]

Query: Fill in binding signal for record GGUCACGUCUCAAUCAACUCUUCAGAGGGGGGGAAAACCCCUUUACCCUCCGUUUCAACAGCUCGCAGUCAAG
Result: 0.44 log2 fold change

Query: Fill in binding signal for record GGUCACGUCUCAAUCAACUCUUUCCCAGGAGUUUUCUCCUGUUAUGUCAACAGCUCGCAGUCAAG
Result: 0.376 log2 fold change
